# credit: paper PMC11249646

Exercise: state measured CONFIRMATORY SCREEN Efficacy (%) for each of the compounds provided.
# TEST SYSTEM: CIB1 and αIIb interaction (CIB1-GST : F-αIIb peptide) (Homo sapiens, UniProt Q99828)
# Construct: made in house; host or cells: BL-21 plus RIL cells (E. coli)
# Sequence (Q99828 1-191): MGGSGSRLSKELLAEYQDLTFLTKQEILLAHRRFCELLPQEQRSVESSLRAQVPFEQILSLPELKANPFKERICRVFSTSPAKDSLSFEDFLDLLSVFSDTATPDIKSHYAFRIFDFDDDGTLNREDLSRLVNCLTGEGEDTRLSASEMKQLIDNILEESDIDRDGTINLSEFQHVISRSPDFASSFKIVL
# PROTOCOL TEXT: FP assay, 1536-well qHTS format (primary and confirmatory screen)
# Assay type: binding
# CONDITION LABEL: confirmatory screen; negative = inhibition
Only the number, expressed in %, is required.

What value of measured CONFIRMATORY SCREEN Efficacy (%) is listed for CC[S+]([O-])c1nc(-c2cccc(OCc3ccccc3)c2)cc(C(F)(F)F)n1 (stereo not shown) [NCGC00379201-03] ? -63

Another compound: Cc1ccc(S(=O)(=O)Nc2cnccc2C(=O)Nc2nc(-c3ccccc3)cs2)cc1.O=C(O)C(F)(F)F [NCGC00262386-01] -53

Moving on to the next compound: C=CCNc1oc(-c2ccc(-c3ccccc3)cc2)nc1C#N.O=C(O)C(F)(F)F [NCGC00183413-01] -66

# repeat for O=C(Cc1ccc(Cl)c(Cl)c1)Nc1ccc(S(=O)(=O)Nc2nnc(-c3ccccn3)s2)cc1.O=C(O)C(F)(F)F [NCGC00248355-01] -132

Cn1sc(=O)n(Cc2ccccc2)c1=O [NCGC00165913-03] , same question. -81

Same again, this time with Cc1ccc(-c2csc(NC(=O)c3ccncc3NS(=O)(=O)c3ccc(C)cc3)n2)cc1.O=C(O)C(F)(F)F [NCGC00319008-01] -50

One more compound: Cc1cc(Nc2c(Nc3nnc(-c4ccncc4)s3)c(=O)c2=O)ccc1Cl.O=C(O)C(F)(F)F [NCGC00241510-01] -51
